System: Eleocharis acicularis
protocol description: Herbicidal efficacy test by pre-emergence treatment under submergence condition; also: key: 1 shows no influence; 5 shows complete die
Assay type: in vivo
assay setup: dose 0.5 kg/ha; 15th day after treatment; ratings of 1 to 5
result type: Herbicidal efficacy Ea
Answer field: number only, no words.

Sample answers from the record:
>  <compound>
Cc1cc(Oc2c(Cl)cc(C(F)(F)F)cc2Cl)nn1C(N)=O [Compound 3-3]

>  <target system>
Eleocharis acicularis

>  <numeric result>
5

$$$$
>  <compound>
CNC(=O)n1nc(Oc2c(Cl)cc(C(F)(F)F)cc2Cl)c(Cl)c1C [Compound 3-249]

>  <target system>
Eleocharis acicularis

>  <numeric result>
5

$$$$
>  <compound>
Cc1cc(Oc2c(Cl)cc(C(F)(F)F)cc2Cl)nn1C(=O)NC(C)C [Compound 3-89]

>  <target system>
Eleocharis acicularis

>  <numeric result>
5

$$$$
>  <compound>
C=CCNC(=O)n1nc(Oc2c(Cl)cc(C(F)(F)F)cc2Cl)cc1C [Compound 3-130]

>  <target system>
Eleocharis acicularis

>  <numeric result>
5

$$$$

Now consider a different compound.
Give the measured Herbicidal efficacy Ea of Cc1cc(Oc2c(Cl)cc(C(F)(F)F)cc2Cl)nn1C(=O)NCCBr [Compound 3-146] .
5

---

Readings of Injury Zm for the listed compounds
Test system: sweet corn (Zea mays)
protocol description: Injury to corn, soil treatment before germination under upland field condition
Assay type: in vivo
assay setup: dose 1 kg/ha; 21st day after treatment; ratings of 1 to 5
Answer field: number only, no words.

# get_value(readout= Injury Zm, system= sweet corn (Zea mays)) for CCCNC(=O)n1nc(Oc2c(Cl)cc(C(F)(F)F)cc2Cl)cc1C [Compound 3-74]
1

# get_value(readout= Injury Zm, system= sweet corn (Zea mays)) for CCNC(=O)n1nc(Oc2c(Cl)cc(C(F)(F)F)cc2Cl)cc1C [Compound 3-44]
3

# get_value(readout= Injury Zm, system= sweet corn (Zea mays)) for CNC(=O)n1nc(Oc2c(Cl)cc(C(F)(F)F)cc2Cl)c(Cl)c1C [Compound 3-249]
1.2

# get_value(readout= Injury Zm, system= sweet corn (Zea mays)) for CCNC(=O)n1nc(Oc2c(Cl)cc(C(F)(F)F)cc2Cl)c(Cl)c1C [Compound 3-253]
1.5

# get_value(readout= Injury Zm, system= sweet corn (Zea mays)) for CCNC(=O)n1nc(Oc2c(Cl)cc(C(F)(F)F)cc2Cl)cc1CC [Compound 3-330]
1.5

---

Readings of melting point for the listed compounds

Sample answers from the record:
>  <structure smiles>
CNC(=O)n1nc(Oc2c(F)cc(C(F)(F)F)cc2Cl)cc1C

>  <melting point>
87 to 88 °C

$$$$
>  <structure smiles>
CNC(=O)n1nc(Oc2ccc([N+](=O)[O-])cc2C(F)(F)F)c(Cl)c1C

>  <melting point>
157 to 158 °C

$$$$
>  <structure smiles>
CCc1cc(Oc2ccc(C(F)(F)F)cc2[N+](=O)[O-])nn1C(=O)NC

>  <melting point>
89 to 91 °C

$$$$
>  <structure smiles>
CNC(=O)n1nc(Oc2ccc(C(F)(F)F)cc2[N+](=O)[O-])cc1C(F)(F)F

>  <melting point>
102 to 104 °C

$$$$
>  <structure smiles>
CC(C)N(C(=O)n1nc(Oc2ccc(C(F)(F)F)cc2[N+](=O)[O-])cc1C(F)(F)F)C(C)C

>  <melting point>
118 to 120 °C

$$$$

Give the measured melting point of CCNC(=O)n1nc(Oc2ncc(C(F)(F)F)cc2Cl)cc1C(F)(F)F .
52 to 54 °C

Give the measured melting point of Cc1cc(Oc2ccccc2C(F)(F)F)nn1C(=O)Nc1ccccc1 .
87 to 89 °C

Give the measured melting point of CCNC(=O)n1nc(Oc2cc(OCC)ccc2[N+](=O)[O-])cc1C .
73 to 75 °C

Give the measured melting point of Cc1cc(Oc2ccc(C(F)(F)F)cc2[N+](=O)[O-])nn1C(=O)NC(C)(C)C .
104 to 106 °C

Give the measured melting point of Cc1c(Oc2ncc(C(F)(F)F)cc2Cl)nn(C(=O)NC(C)C)c1C .
78 to 80 °C

Give the measured melting point of COCNC(=S)n1nc(Oc2ccc(C#N)cc2C(F)(F)F)cc1C .
89 to 90 °C

Give the measured melting point of Cc1cc(Oc2ncc(C(F)(F)F)cc2Cl)n[nH]1 .
93 to 95 °C

---

Readings of Herbicidal activity Ec for the listed compounds
System: Echinochloa crus-galli
protocol description: Herbicidal efficacy test by foliar treatment after germination under upland field condition
Type: in vivo
assay setup: dose 1 kg/ha, rated 1 to 5 on the 14th day after treatment
Answer field: number only, no words.

Sample answers from the record:
>  <compound>
CCCNC(=O)n1nc(Oc2c(Cl)cc(C(F)(F)F)cc2Cl)cc1C [Compound 3-74]

>  <target system>
Echinochloa crus-galli

>  <numeric result>
4.9

$$$$
>  <compound>
CCNC(=O)n1nc(Oc2c(Cl)cc(C(F)(F)F)cc2Cl)cc1C [Compound 3-44]

>  <target system>
Echinochloa crus-galli

>  <numeric result>
5

$$$$
>  <compound>
CCNC(=O)n1nc(Oc2ccc(C(F)(F)F)cc2[N+](=O)[O-])cc1C [Compound 3-67]

>  <target system>
Echinochloa crus-galli

>  <numeric result>
4.9

$$$$
>  <compound>
CCC(C)NC(=O)n1nc(Oc2ncc(C(F)(F)F)cc2Cl)cc1C (stereo not shown) [Compound 4-30]

>  <target system>
Echinochloa crus-galli

>  <numeric result>
5

$$$$
>  <compound>
CNC(=O)n1nc(Oc2c(Cl)cc(C(F)(F)F)cc2Cl)c(Cl)c1C [Compound 3-249]

>  <target system>
Echinochloa crus-galli

>  <numeric result>
5

$$$$
>  <compound>
CCNC(=O)n1nc(Oc2c(Cl)cc(C(F)(F)F)cc2Cl)c(Cl)c1C [Compound 3-253]

>  <target system>
Echinochloa crus-galli

>  <numeric result>
5

$$$$
>  <compound>
CCNC(=O)n1nc(Oc2c(Cl)cc(C(F)(F)F)cc2Cl)cc1CC [Compound 3-330]

>  <target system>
Echinochloa crus-galli

>  <numeric result>
5

$$$$
>  <compound>
CCCNC(=O)n1nc(Oc2ccc(C(F)(F)F)cc2[N+](=O)[O-])cc1C [Compound 3-82]

>  <target system>
Echinochloa crus-galli

>  <numeric result>
3.8

$$$$

Give the measured Herbicidal activity Ec of CNC(=S)n1nc(Oc2c(Cl)cc(C(F)(F)F)cc2Cl)cc1C [Compound 3-15] .
5

Give the measured Herbicidal activity Ec of C=CCNC(=O)n1nc(Oc2c(Cl)cc(C(F)(F)F)cc2Cl)cc1C [Compound 3-130] .
5

Give the measured Herbicidal activity Ec of Cc1cc(Oc2c(Cl)cc(C(F)(F)F)cc2Cl)nn1C(=O)NC(C)C [Compound 3-89] .
5

Give the measured Herbicidal activity Ec of Cc1cc(Oc2c(Cl)cc(C(F)(F)F)cc2Cl)nn1C(N)=O [Compound 3-3] .
4.5

Give the measured Herbicidal activity Ec of Cc1cc(Oc2c(Cl)cc(C(F)(F)F)cc2Cl)nn1C(=O)NCC1CCCO1 (stereo not shown) [Compound 3-183] .
5

Give the measured Herbicidal activity Ec of CNC(=O)n1nc(Oc2c(Cl)cc(C(F)(F)F)cc2Cl)cc1C [Compound 3-14] .
5

Give the measured Herbicidal activity Ec of CCONC(=O)n1nc(Oc2c(Cl)cc(C(F)(F)F)cc2Cl)cc1C [Compound 3-158] .
5

Give the measured Herbicidal activity Ec of CCNC(=S)n1nc(Oc2c(Cl)cc(C(F)(F)F)cc2Cl)cc1C [Compound 3-45] .
5

---

result type: melting point

Sample answers from the record:
>  <compound>
Cc1cc(Oc2ccc([N+](=O)[O-])c(C)c2)n[nH]1 [Compound 1-4]

>  <result type>
melting point

>  <result>
114 to 117 °C

$$$$
>  <compound>
CCNC(=O)n1nc(Oc2ncc(Cl)cc2Cl)cc1C [Compound 4-15]

>  <result type>
melting point

>  <result>
74 to 76 °C

$$$$
>  <compound>
CCNC(=O)n1nc(Oc2c([N+](=O)[O-])cc([N+](=O)[O-])cc2C(F)(F)F)cc1C

>  <result type>
melting point

>  <result>
169 to 171 °C

$$$$
>  <compound>
CCNC(=O)n1nc(Oc2ccc(N)c(C(F)(F)F)c2)cc1C [Example 100]

>  <result type>
melting point

>  <result>
102 to 104 °C

$$$$

Give the measured melting point of Cc1cc(Oc2ccc(C(F)(F)F)cc2[N+](=O)[O-])n[nH]1 [Compound 1-44] .
89 to 91 °C

Give the measured melting point of Cc1cc(Oc2c(Cl)cc(C(F)(F)F)cc2Cl)nn1C(=O)NCC=O [Example 229] .
111 to 113 °C

Give the measured melting point of Cc1cc(Oc2ccc(F)cc2[N+](=O)[O-])n[nH]1 [Compound 1-29] .
81 to 84 °C

Give the measured melting point of CCNC(=O)n1nc(Oc2ccc([N+](=O)[O-])c(C)c2)cc1C [Example 96] .
67 to 69 °C

Give the measured melting point of CCNC(=S)n1nc(Oc2c(F)cc(C(F)(F)F)cc2Cl)cc1C .
114 to 115 °C

Give the measured melting point of CNC(=O)n1nc(Oc2ccc(C(F)(F)F)cc2N)cc1C [Example 242] .
93 to 94 °C

Give the measured melting point of Cc1c(Cl)c(Oc2ccc(C(F)(F)F)cc2[N+](=O)[O-])nn1C(=O)NC(C)C [Example 243] .
89 to 91 °C

Give the measured melting point of CCCCCCNC(=O)n1nc(Oc2c(Cl)cc(C(F)(F)F)cc2Cl)c(Cl)c1C [Example 246] .
86 to 88 °C

Give the measured melting point of Cc1cc(Oc2ncc(C(F)(F)F)cc2Cl)nn1C(=O)N(C(C)C)C(C)C [Compound 4-27] .
58 to 60 °C

Give the measured melting point of CNC(=O)n1nc(Oc2ncc(C(F)(F)F)cc2Cl)cc1C(F)(F)F [Compound 4-91] .
61 to 63 °C

Give the measured melting point of Cc1cc(Oc2ccc(N)cc2C(F)(F)F)n[nH]1 [Compound 1-37] .
143 to 145 °C

Give the measured melting point of CCNC(=O)n1nc(Oc2c(Cl)cc(C(F)(F)F)cc2Cl)cc1CC [Example 163] .
86 to 89 °C

Give the measured melting point of CNC(=O)n1nc(Oc2c(Cl)cc(C(F)(F)F)cc2Cl)cc1C .
113 to 114 °C

Give the measured melting point of Cc1cc(Oc2c(Cl)cc(C(F)(F)F)cc2[N+](=O)[O-])n[nH]1 [Compound 1-21] .
120 to 123 °C

Give the measured melting point of Cc1[nH]nc(Oc2c(Cl)cc(C(F)(F)F)cc2Cl)c1Cl [Compound 1-18] .
156 to 158 °C

Give the measured melting point of Cc1cc(Oc2c(F)cc(C(F)(F)F)cc2Cl)n[nH]1 [Compound 1-19] .
171 to 174 °C

Give the measured melting point of CCCNC(=O)n1nc(Oc2c(Cl)cc(C(F)(F)F)cc2Cl)cc1C(Cl)(Cl)Cl [Example 250] .
89 to 91 °C

Give the measured melting point of CCOc1cc(Oc2cc(C)[nH]n2)ccc1[N+](=O)[O-] [Compound 1-6] .
123 to 124 °C

Give the measured melting point of CCc1c(Cl)c(Oc2ncc(C(F)(F)F)cc2Cl)nn1C(=O)NC [Compound 4-89] .
88 to 89 °C

Give the measured melting point of CCNC(=O)n1nc(Oc2ncc(C(F)(F)F)cc2Cl)c(Cl)c1C [Compound 4-67] .
111 to 112 °C

Give the measured melting point of CCNC(=O)n1nc(Oc2ccc(F)cc2[N+](=O)[O-])cc1C [Example 85] .
81 to 84 °C

Give the measured melting point of CCNC(=O)n1nc(Oc2ncc(C(F)(F)F)cc2Cl)c(Br)c1C [Compound 4-78] .
123 to 125 °C

Give the measured melting point of CCc1c(Oc2ccc(C(F)(F)F)cc2[N+](=O)[O-])nn(C(=O)NC)c1C .
81 to 82 °C

Give the measured melting point of C=CNC(=S)n1nc(Oc2ncc(C(F)(F)F)cc2Cl)cc1C [Compound 4-41] .
90 to 92 °C

Give the measured melting point of CNC(=O)n1nc(Oc2ccc([N+](=O)[O-])cc2C(F)(F)F)c(C)c1C .
113 to 115 °C

Give the measured melting point of Cc1c(Cl)c(Oc2c(Cl)cc(C(F)(F)F)cc2Cl)nn1C(=O)NC(C)C [Example 249] .
109 to 111 °C

Give the measured melting point of Cc1cc(Oc2ccc([N+](=O)[O-])cc2)n[nH]1 [Compound 1-47, 5-methyl-3-(4-nitrophenyloxy)pyrazole] .
124 to 125 °C
